Test: in vivo
Conditions: mouse, po, 25 mg/kg
Assign Tmax to each entry below.
Your answer should be a plain number; it is taken to be in min.

Looking for the measured Tmax of CC(CCO)n1nc(-c2ccc3nc(OC4CC4)ccc3c2)c(C(N)=O)c1N (configuration not stated) , can you help?
40

Returns the measured Tmax for the input compound. Input: CC(CCO)n1nc(-c2cnc3cc(OC4CC4)ccc3c2)c(C(N)=O)c1N (configuration not stated)
30

----------
Experiment: Inhibition of Cryptosporidium parvum CDPK1 assessed as reduction in ATP consumption using BioSyntide-2 substrate incubated for 90 mins by luciferase reporter gene assay
Exercise: for every item that follows, state its recorded log10 of IC50.
Heads up: the numbers are on a log10 scale; they represent IC50 in nM.

What value of log10 of IC50 has been reported for the following compound? CC(C)(CO)Cn1nc(-c2cnc3cc(OC4CC4)ccc3c2)c(C(N)=O)c1N
-1.00

Bench note: what log10 of IC50 did CC(C)(CCO)n1nc(-c2cnc3cc(OC4CC4)ccc3c2)c(C(N)=O)c1N show?
0.48

Form field: reported log10 of IC50 of CCOc1ccc2cc(-c3nn(C(C)(C)CCO)c(N)c3C(N)=O)cnc2c1
0.76

I'd like to know its log10 of IC50. The compound in question is CCOc1ccc2cc(-c3nn(C(C)(C)CO)c(N)c3C(N)=O)ccc2c1
0.95

Value lookup for log10 of IC50; key = CCOc1ccc2cc(-c3nn(C(C)(C)CCO)c(N)c3C(N)=O)ccc2c1
0.40

So what does the record say about log10 of IC50 for CC(CCO)n1nc(-c2ccc3cc(OC4CC4)ccc3c2)c(C(N)=O)c1N (stereo not drawn) ?
0.78

Entry CC(C)(CCO)n1nc(-c2ccc3cc(OC4CC4)ccc3c2)c(C(N)=O)c1N : reported log10 of IC50 = ?
0.58

For the compound shown here, CC(CCO)n1nc(-c2ccc3nc(OC4CC4)ccc3c2)c(C(N)=O)c1N (stereo not drawn) , give the reported log10 of IC50.
0.77
